- system.tested: HIV gp120 CAAN (HIV)
- measurement.protocol: single-point ELISA; further: test concentration or dose not given here
attribute.measured: ELISA (A450)

1) 1.34.35-1 (antibody, human IgG1, kappa, V domains shown) VH: QVQLVQSGAEVKKPGASVRVSCKASGYNIRDYFIHWWRQAPGQGLQWVGWINPKTGQPNNPRQFQGRVTLTRHASWDFDTFSFYMDLKALRSDDTAVYFCARQRTDYWDFDVWGSGTQVTVSS VL: DIQMTQSPSSLSASVGDRVTITCQANGYLNWYQQKPGKAPKLLIYDGSNLETGVPSRFSGSRWGQEYTLTISSLQPEDIATYFCQVYEFVGPGTNLDIKR : 0.77
2) 1.35.35-1 (antibody, human IgG1, kappa, V domains shown) VH: QVQLVQSGAEVKKPGASVRVSCKASGYNIRDYFMHWWRQAPGQGLQWVGWINPKTGQPNNPRQFQGRVTMTRHASWDFDTFSFYMDLSRLRSDDTATYFCARQRTDYWDFDVWGQGTMVTVSS VL: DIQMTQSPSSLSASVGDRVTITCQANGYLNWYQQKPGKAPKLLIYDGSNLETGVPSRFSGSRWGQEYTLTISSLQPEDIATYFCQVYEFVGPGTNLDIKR : 0.67
3) 1.13.17-1 (antibody, human IgG1, kappa, V domains shown) VH: QVQLLQSGAAVTKPGASVRVSCEASGYNIRDYFMHWVRQAPGQGLQWVGWINPKTGQPNNPRQFQGRVSLTRHASWDFDTFSFYMDLKALRSDDTAVYFCARQRSDYWDFDVWGSGTQVTVSS VL: DIQMTQSPSSLSASVGDTVTITCQANGYLNWYQQRRGKAPKLLIYDGSKLERGVPSRFSGRRWGQEYNLTINNLQPEDIATYFCQVYEFFGPGTRLDLKR : 0.78
